Test system: Crude diglycosidase
measurement protocol: Examination of pH in the conversion into isoflavone aglycons by diglycosidase using soybean materials
Format: biochemical, Penicillium multicolor IAM7153
condition: pH2.3; heat treatment of enzyme: no; reaction time 6 h
Measured Decomposition efficiency of daidzin family in soymilk, listed per entry for reference.
experimental readout: Decomposition efficiency of daidzin family in soymilk (%)

INSERT INTO results (compound, recorded_measurement) VALUES
  ('O=c1c(-c2ccc(O)cc2)coc2cc(O)ccc12 [daidzein]', 51.5),
  ('O=C(O)CC(=O)OC[C@H]1O[C@@H](Oc2ccc3c(=O)c(-c4ccc(O)cc4)coc3c2)[C@H](O)[C@@H](O)[C@@H]1O [malonyldaidzin, 6″-O-malonyldaidzin]', 48.5);

---

System: Crude diglycosidase
measurement protocol: Examination of pH in the conversion into isoflavone aglycons by diglycosidase using soybean materials
Assay type: biochemical, Penicillium multicolor IAM7153
Parameters: concentration or dose not given beside the values
condition: pH5.4; heat treatment of enzyme: yes; reaction time 6 h
experimental readout: Decomposition efficiency of genistin family in defatted soybean (%)

INSERT INTO measurements (smiles_text, recorded_measurement) VALUES
  ('O=C(O)CC(=O)OC[C@H]1O[C@@H](Oc2cc(O)c3c(=O)c(-c4ccc(O)cc4)coc3c2)[C@H](O)[C@@H](O)[C@@H]1O', 45.8),
  ('O=c1c(-c2ccc(O)cc2)coc2cc(O)cc(O)c12', 48.0),
  ('O=c1c(-c2ccc(O)cc2)coc2cc(O[C@@H]3O[C@H](CO)[C@@H](O)[C@H](O)[C@H]3O)cc(O)c12', 6.2);

---

Measured Decomposition efficiency of daidzin family in soymilk, listed per entry for reference.
System: Crude diglycosidase
measurement protocol: Examination of pH in the conversion into isoflavone aglycons by diglycosidase using soybean materials
Assay type: biochemical, Penicillium multicolor IAM7153
condition: pH7.2; heat treatment of enzyme: no; reaction time 0 h
experimental readout: Decomposition efficiency of daidzin family in soymilk (%)

INSERT INTO results (smiles_text, recorded_measurement) VALUES
  ('O=C(O)CC(=O)OC[C@H]1O[C@@H](Oc2ccc3c(=O)c(-c4ccc(O)cc4)coc3c2)[C@H](O)[C@@H](O)[C@@H]1O', 56.1),
  ('O=c1c(-c2ccc(O)cc2)coc2cc(O)ccc12', 9.0),
  ('O=c1c(-c2ccc(O)cc2)coc2cc(O[C@@H]3O[C@H](CO)[C@@H](O)[C@H](O)[C@H]3O)ccc12', 34.9);

---

Test system: β-Glucosidase derived from A. niger
measurement protocol: Reactivity toward various isoflavone glycosides (HPLC)
Type: biochemical, Aspergillus niger
Set-up: unit not given here
condition: Reaction time 1 h; 55 °C, pH 4.0
experimental readout: glucoside

INSERT INTO measurements (smiles_text, measured_on, recorded_measurement) VALUES
  ('COc1cc2c(=O)c(-c3ccc(O)cc3)coc2cc1O[C@@H]1O[C@H](COC(C)=O)[C@@H](O)[C@H](O)[C@H]1O', 'β-Glucosidase derived from A. niger', 100),
  ('COc1cc2c(=O)c(-c3ccc(O)cc3)coc2cc1O[C@@H]1O[C@H](CO)[C@@H](O)[C@H](O)[C@H]1O', 'β-Glucosidase derived from A. niger', 50.5),
  ('O=c1c(-c2ccc(O)cc2)coc2cc(O[C@@H]3O[C@H](CO)[C@@H](O)[C@H](O)[C@H]3O)ccc12', 'β-Glucosidase derived from A. niger', 0),
  ('O=C(O)CC(=O)OC[C@H]1O[C@@H](Oc2ccc3c(=O)c(-c4ccc(O)cc4)coc3c2)[C@H](O)[C@@H](O)[C@@H]1O', 'β-Glucosidase derived from A. niger', 95.5);

---

Tested on: Crude diglycosidase
measurement protocol: Examination of pH in the conversion into isoflavone aglycons by diglycosidase using soybean materials
Type: biochemical, Penicillium multicolor IAM7153
condition: pH4, heat treatment of enzyme no, reaction time 3 h, 55° C.
experimental readout: Decomposition efficiency of daidzin family in roasted soy flour

INSERT INTO measurements (compound, recorded_measurement) VALUES
  ('O=c1c(-c2ccc(O)cc2)coc2cc(O[C@@H]3O[C@H](CO)[C@@H](O)[C@H](O)[C@H]3O)ccc12 [daidzin]', 'not detected'),
  ('CC(=O)OC[C@H]1O[C@@H](Oc2ccc3c(=O)c(-c4ccc(O)cc4)coc3c2)[C@H](O)[C@@H](O)[C@@H]1O [acetyldaidzin, 6″-O-acetyldaidzin]', 20.5),
  ('O=C(O)CC(=O)OC[C@H]1O[C@@H](Oc2ccc3c(=O)c(-c4ccc(O)cc4)coc3c2)[C@H](O)[C@@H](O)[C@@H]1O [malonyldaidzin, 6″-O-malonyldaidzin]', 'not detected'),
  ('O=c1c(-c2ccc(O)cc2)coc2cc(O)ccc12 [daidzein]', 79.5);

---

Test system: Crude diglycosidase
measurement protocol: Examination of temperature in the conversion into isoflavone aglycons by diglycosidase using soybean materials
Format: biochemical, Penicillium multicolor IAM7153
Design: concentration or dose not given beside the values
condition: 80° C., heat treatment of enzyme no, reaction time 0 h
experimental readout: Decomposition efficiency of daidzin family in defatted soybean

INSERT INTO results (compound, recorded_measurement) VALUES
  ('O=c1c(-c2ccc(O)cc2)coc2cc(O)ccc12 [daidzein]', '16.2%'),
  ('O=c1c(-c2ccc(O)cc2)coc2cc(O[C@@H]3O[C@H](CO)[C@@H](O)[C@H](O)[C@H]3O)ccc12 [daidzin]', '40.5%'),
  ('O=C(O)CC(=O)OC[C@H]1O[C@@H](Oc2ccc3c(=O)c(-c4ccc(O)cc4)coc3c2)[C@H](O)[C@@H](O)[C@@H]1O [malonyldaidzin, 6″-O-malonyldaidzin]', '43.3%');

---

Tested on: Crude diglycosidase
measurement protocol: Examination of pH in the conversion into isoflavone aglycons by diglycosidase using soybean materials
Assay type: biochemical, Penicillium multicolor IAM7153
Set-up: concentration or dose not given beside the values
condition: pH6.6; heat treatment of enzyme: no; reaction time 6 h
experimental readout: Decomposition efficiency of genistin family in defatted soybean (%)

INSERT INTO assay_data (compound, recorded_measurement) VALUES
  ('O=C(O)CC(=O)OC[C@H]1O[C@@H](Oc2cc(O)c3c(=O)c(-c4ccc(O)cc4)coc3c2)[C@H](O)[C@@H](O)[C@@H]1O [malonylgenistin, 6″-O-malonylgenistin]', 46.1),
  ('O=c1c(-c2ccc(O)cc2)coc2cc(O)cc(O)c12 [genistein]', 53.7),
  ('CC(=O)OC[C@H]1O[C@@H](Oc2cc(O)c3c(=O)c(-c4ccc(O)cc4)coc3c2)[C@H](O)[C@@H](O)[C@@H]1O [acetylgenistin, 6″-O-acetylgenistin]', 0.2);

---

Test system: Crude diglycosidase
measurement protocol: Examination of pH in the conversion into isoflavone aglycons by diglycosidase using soybean materials
Type: biochemical, Penicillium multicolor IAM7153
Design: concentration or dose not given beside the values
condition: pH2.6; heat treatment of enzyme: yes; reaction time 6 h
experimental readout: Decomposition efficiency of daidzin family in defatted soybean (%)

INSERT INTO results (smiles_text, measured_on, recorded_measurement) VALUES
  ('O=c1c(-c2ccc(O)cc2)coc2cc(O[C@@H]3O[C@H](CO)[C@@H](O)[C@H](O)[C@H]3O)ccc12', 'Crude diglycosidase', 48.0),
  ('O=c1c(-c2ccc(O)cc2)coc2cc(O)ccc12', 'Crude diglycosidase', 13.0),
  ('O=C(O)CC(=O)OC[C@H]1O[C@@H](Oc2ccc3c(=O)c(-c4ccc(O)cc4)coc3c2)[C@H](O)[C@@H](O)[C@@H]1O', 'Crude diglycosidase', 38.9);

---

Measured glucoside, listed per entry for reference.
Tested on: β-Glucosidase derived from almond
measurement protocol: Reactivity toward various isoflavone glycosides (HPLC)
Type: biochemical
Parameters: unit not given here
condition: Reaction time 1 h; 55 °C, pH 4.0
experimental readout: glucoside

INSERT INTO results (smiles_text, experimental_readout, recorded_measurement) VALUES
  ('O=C(O)CC(=O)OC[C@H]1O[C@@H](Oc2ccc3c(=O)c(-c4ccc(O)cc4)coc3c2)[C@H](O)[C@@H](O)[C@@H]1O', 'glucoside', 100),
  ('CC(=O)OC[C@H]1O[C@@H](Oc2cc(O)c3c(=O)c(-c4ccc(O)cc4)coc3c2)[C@H](O)[C@@H](O)[C@@H]1O', 'glucoside', 100),
  ('COc1cc2c(=O)c(-c3ccc(O)cc3)coc2cc1O[C@@H]1O[C@H](COC(=O)CC(=O)O)[C@@H](O)[C@H](O)[C@H]1O', 'glucoside', 100),
  ('O=c1c(-c2ccc(O)cc2)coc2cc(O[C@@H]3O[C@H](CO)[C@@H](O)[C@H](O)[C@H]3O)cc(O)c12', 'glucoside', 90.6),
  ('COc1cc2c(=O)c(-c3ccc(O)cc3)coc2cc1O[C@@H]1O[C@H](CO)[C@@H](O)[C@H](O)[C@H]1O', 'glucoside', 98.4),
  ('O=c1c(-c2ccc(O)cc2)coc2cc(O[C@@H]3O[C@H](CO)[C@@H](O)[C@H](O)[C@H]3O)ccc12', 'glucoside', 90.9),
  ('O=C(O)CC(=O)OC[C@H]1O[C@@H](Oc2cc(O)c3c(=O)c(-c4ccc(O)cc4)coc3c2)[C@H](O)[C@@H](O)[C@@H]1O', 'glucoside', 100),
  ('CC(=O)OC[C@H]1O[C@@H](Oc2ccc3c(=O)c(-c4ccc(O)cc4)coc3c2)[C@H](O)[C@@H](O)[C@@H]1O', 'glucoside', 99.5),
  ('COc1cc2c(=O)c(-c3ccc(O)cc3)coc2cc1O[C@@H]1O[C@H](COC(C)=O)[C@@H](O)[C@H](O)[C@H]1O', 'glucoside', 100);
